# Test system: Tetranychus urticae
# METHOD_NOTES: Acaricidal against Tetranychus urticae (two-spotted spider mite) assessed as mortality at 12.5 ppm
# Type: functional
OUTCOME_MEASURE: Activity (%)

                                        smi          test_system  assay_value
0   CCc1nn(C)c(C(=O)NCc2ccc(CC(C)C)nc2)c1Cl  Tetranychus urticae           30
1  CCc1nn(C)c(C(=O)NCc2ccc(OCC(F)(F)C(F)(F)C(F)(F)F)nc2)c1Cl  Tetranychus urticae          100
2   CCc1nn(C)c(C(=O)NCc2cnccc2C(C)(C)C)c1Cl  Tetranychus urticae          100
3  CCc1nn(C)c(C(=O)NCc2ccc(C(C)(C)C)nc2)c1Cl  Tetranychus urticae          100
